Where do the numbers come from? From patent US10150771B2.

Quick reference: IC50 of the listed items.
System under test: PDE1A (Homo sapiens)
Sequence (P54750 whole entry): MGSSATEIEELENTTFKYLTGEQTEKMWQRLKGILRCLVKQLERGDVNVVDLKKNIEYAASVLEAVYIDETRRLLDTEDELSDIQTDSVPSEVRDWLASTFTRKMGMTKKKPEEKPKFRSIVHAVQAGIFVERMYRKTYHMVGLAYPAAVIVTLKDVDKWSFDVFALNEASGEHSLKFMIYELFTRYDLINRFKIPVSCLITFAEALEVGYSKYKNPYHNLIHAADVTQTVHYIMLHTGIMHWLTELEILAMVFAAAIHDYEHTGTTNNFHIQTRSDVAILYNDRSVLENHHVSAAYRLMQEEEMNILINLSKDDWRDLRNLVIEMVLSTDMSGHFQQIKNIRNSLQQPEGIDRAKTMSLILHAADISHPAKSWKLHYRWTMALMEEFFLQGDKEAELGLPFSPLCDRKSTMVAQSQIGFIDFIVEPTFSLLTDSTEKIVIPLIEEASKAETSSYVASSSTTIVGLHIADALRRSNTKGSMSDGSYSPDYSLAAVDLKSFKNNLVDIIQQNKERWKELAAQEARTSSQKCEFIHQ
Experiment: PDE1 inhibition assay (SPA), PDE1A
Assay type: biochemical
Experimental context: concentration required to reach 50% inhibition of the enzyme; 15 nM tritium labelled cAMP; read-out: PDE1A inhibition (nM or %): IC50
Field format: number, assumed nM, no unit text.

Record excerpt, results attached:
[
  {
    "Compound": "CCCc1nnc2c(=O)n(CC(C)C)ccn12",
    "System under test": "PDE1A (Homo sapiens)",
    "Units of measure": "nM",
    "IC50": 3300
  },
  {
    "Compound": "O=c1c2nnc(C3CCOCC3)n2cc(Cc2ccc(F)cc2)n1Cc1cccc(F)c1",
    "System under test": "PDE1A (Homo sapiens)",
    "Units of measure": "nM",
    "IC50": 46
  },
  {
    "Compound": "CCCc1nnc2c(=O)n(Cc3cccc(F)c3)c([C@H]3CCOC3)cn12 (single isomer, unassigned)",
    "System under test": "PDE1A (Homo sapiens)",
    "Units of measure": "nM",
    "IC50": 2980
  }
]

Ask | Given the entry Cc1cccc(Cc2cn3c(C4CCOCC4)nnc3c(=O)n2CC2CCCC2)c1 , report its measured IC50.
Reply | 17

Ask | What does the record list as IC50 for O=c1c2nnc(C3CCOCC3)n2ccn1CC1CCCCCC1 ?
Reply | 43

Ask | IC50 for CCCc1nnc2c(=O)n(Cc3cccc(F)c3)cc([C@H]3CCOC3)n12 (single isomer, unassigned) ?
Reply | 1610

Ask | Return reported IC50; argument: Cc1ccc(Cc2cn3c(C4CCOCC4)nnc3c(=O)n2CC2CCCCC2)cc1
Reply | 1
